Origin of values: patent US6608086B2

Target: α1B Human Adrenergic Receptor (Homo sapiens)
Construct: The entire coding region of α1B (1563 bp); expressed in transfected cells
Sequence (P35368 whole entry): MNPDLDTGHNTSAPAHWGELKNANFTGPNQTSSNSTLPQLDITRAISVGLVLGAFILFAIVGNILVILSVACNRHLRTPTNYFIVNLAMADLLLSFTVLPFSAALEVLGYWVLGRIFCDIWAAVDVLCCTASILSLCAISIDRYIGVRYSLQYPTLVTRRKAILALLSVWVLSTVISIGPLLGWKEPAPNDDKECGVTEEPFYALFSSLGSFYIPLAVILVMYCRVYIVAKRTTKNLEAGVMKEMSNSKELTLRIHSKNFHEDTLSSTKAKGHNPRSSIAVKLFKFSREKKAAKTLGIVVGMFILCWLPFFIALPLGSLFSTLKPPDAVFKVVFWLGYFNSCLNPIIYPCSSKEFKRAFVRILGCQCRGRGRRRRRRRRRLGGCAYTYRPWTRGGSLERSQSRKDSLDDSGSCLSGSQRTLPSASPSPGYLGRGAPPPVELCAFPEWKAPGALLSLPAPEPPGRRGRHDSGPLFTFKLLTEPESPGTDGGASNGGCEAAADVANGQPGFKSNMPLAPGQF
Experiment: Radioligand binding, [3H]prazosin, cloned human α1B adrenergic receptor
Conditions: PKi alpha-1 1b, cloned human receptor, LM(tk-) cell membranes, mean
Threshold check on Ki: strictly below 600 nM is yes; on or above 600 nM is no.

INSERT INTO measurements (molecule, assigned_category) VALUES
  ('CC(=O)C1=C(C)NC(CCCCN)=C(C(=O)NCCCN2CCC(c3ccccc3)(c3ccccc3)CC2)C1c1ccc([N+](=O)[O-])cc1 (stereo not drawn)', 'yes'),
  ('CNC(=O)C1=C(C)NC(C)=C(C(=O)NCCCN2CCC(c3ccccc3)(c3ccccc3)CC2)C1c1ccc2c(c1)OCCO2 (stereo not drawn)', 'no'),
  ('CC(=O)C1=C(C)NC(COCCN)=C(C(=O)NCCCN2CCC(c3ccccc3)(c3ccccc3)CC2)C1c1ccc([N+](=O)[O-])cc1 (stereo not drawn)', 'yes'),
  ('CC1=C(C(N)=O)C(c2ccc([N+](=O)[O-])cc2)C(C(=O)NCCCN2CCC(c3ccccc3)(c3ccccc3)CC2)=C(CCCCCN)N1 (stereo not drawn)', 'yes'),
  ('CCC1=C(C(=O)O)C(c2ccc([N+](=O)[O-])cc2)C(C(=O)NCCCN2CCC(c3ccccc3)(c3ccccc3)CC2)=C(COCCN)N1 (stereo not drawn)', 'no');
